Compiled Ki measurements on Dipeptidyl peptidase 4 (Homo sapiens, UniProt P27487) taken from the literature.

CC(=O)N[C@@H](CCCNC(=N)N)C(=O)NCCOCCOCC(=O)N[C@@H](CO)C(=O)NCC(=O)N1CCC[C@H]1B(O)O | 861 nM

Exercise: Retrieve Ki on Dipeptidyl peptidase 4 (Homo sapiens, UniProt P27487); query `N#C[C@@H]1CCCN1C(=O)[C@@H](N)CN1C[C@@H]2C[C@H]1CN2c1cccc(F)c1`
Key: 6 to 50 nM

Exercise: Report the value of Ki obtained on Dipeptidyl peptidase 4 (Homo sapiens, UniProt P27487) for `N#C[C@@H]1CCCN1C(=O)CNC1c2ccccc2CCc2ccccc21` .
Key: 500 to 30000 nM

Exercise: Print Dipeptidyl peptidase 4 (Homo sapiens, UniProt P27487) Ki for `N#C[C@@H]1C[C@@H]2C[C@@H]2N1C(=O)CNCCC1(c2nn[nH]n2)c2ccc(C(N)=O)cc2CCc2cc(C(N)=O)ccc21` .
Key: < 6 nM

Exercise: Given CC(=O)NC(CCCNC(=N)N)C(=O)NCC(=O)NCC(=O)N1CCCC1B(O)O (racemic) , report its Ki on Dipeptidyl peptidase 4 (Homo sapiens, UniProt P27487).
Key: 341 nM

Exercise: Determine reported Ki for `N#C[C@@H]1CCCN1C(=O)CNCC1c2ccccc2CCc2ccccc21` ; test system: Dipeptidyl peptidase 4 (Homo sapiens, UniProt P27487).
Key: 500 to 30000 nM

Exercise: Give measured Ki for `C[C@@H](CC1(c2noc(C(F)(F)F)n2)c2ccc(C(=O)N(C)C)cc2CCc2cc(C(=O)N(C)C)ccc21)NCC(=O)N1CCC[C@H]1C#N` (Dipeptidyl peptidase 4 (Homo sapiens, UniProt P27487)).
Key: 500 to 30000 nM

Exercise: Answer with Ki of `CC(C)NC(=O)c1ccc2c(c1)CCc1cc(C(=O)NC(C)C)ccc1C2(C[C@H](C)NCC(=O)N1CCC[C@H]1C#N)c1nn[nH]n1` measured for Dipeptidyl peptidase 4 (Homo sapiens, UniProt P27487).
Key: 6 to 50 nM

Exercise: Give Ki; test system Dipeptidyl peptidase 4 (Homo sapiens, UniProt P27487); molecule `N#C[C@@H]1CCCN1C(=O)CNCC(=O)N1c2ccccc2CCc2ccccc21`
Key: 500 to 30000 nM

Exercise: # lookup: Dipeptidyl peptidase 4 (Homo sapiens, UniProt P27487) Ki, key = `N#C[C@@H]1CCCN1C(=O)CNCCC1(c2nn[nH]n2)c2ccc(C(N)=O)cc2CCc2cc(C(N)=O)ccc21`
Key: < 6 nM

Exercise: For Dipeptidyl peptidase 4 (Homo sapiens, UniProt P27487), give the measured Ki of the entry `N#C[C@@H]1CCCN1C(=O)[C@@H](N)CN1C(=O)[C@@H]2C[C@H]1CN2C(=O)OCC1c2ccccc2-c2ccccc21`
Key: 6 to 50 nM

Exercise: Fill in Ki for `Cc1ccc(S(=O)(=O)NC(=O)N2C[C@@H]3C[C@H]2C(=O)N3C[C@H](N)C(=O)N2CCC[C@H]2C#N)cc1` tested with Dipeptidyl peptidase 4 (Homo sapiens, UniProt P27487).
Key: 51 to 500 nM

Exercise: Provide Ki, recorded with Dipeptidyl peptidase 4 (Homo sapiens, UniProt P27487), of `CCNC(=O)c1ccc2c(c1)CCc1cc(C(=O)NCC)ccc1C2(C[C@H](C)NCC(=O)N1CCC[C@H]1C#N)c1nn[nH]n1`
Key: < 6 nM

Exercise: Lab note: record Ki of `N#C[C@@H]1CCCN1C(=O)[C@@H](N)CN1C[C@@H]2C[C@H]1CN2S(=O)(=O)c1cccc(F)c1` tested on Dipeptidyl peptidase 4 (Homo sapiens, UniProt P27487).
Key: < 6 nM
